- measured.on: Sterol 14-alpha demethylase (Trypanosoma cruzi (strain CL Brener)) (UniProt Q7Z1V1)
- Sequence (Q7Z1V1 whole entry, looked up): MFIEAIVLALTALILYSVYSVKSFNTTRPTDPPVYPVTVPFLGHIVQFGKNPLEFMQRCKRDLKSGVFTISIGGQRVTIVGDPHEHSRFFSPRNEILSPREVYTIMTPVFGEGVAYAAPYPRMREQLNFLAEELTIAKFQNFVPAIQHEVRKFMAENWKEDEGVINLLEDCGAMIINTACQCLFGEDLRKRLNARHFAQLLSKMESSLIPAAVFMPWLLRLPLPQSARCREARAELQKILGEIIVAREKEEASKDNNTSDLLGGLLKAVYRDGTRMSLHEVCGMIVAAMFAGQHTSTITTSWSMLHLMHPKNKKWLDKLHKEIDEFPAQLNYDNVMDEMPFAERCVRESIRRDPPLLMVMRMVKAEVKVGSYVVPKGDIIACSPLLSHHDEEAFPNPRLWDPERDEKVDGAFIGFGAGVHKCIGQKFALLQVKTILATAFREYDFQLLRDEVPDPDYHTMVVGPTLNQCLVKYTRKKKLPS
- assay.name: Inhibition of Trypanosoma cruzi CYP51 assessed as residual enzyme activity at 100 uM using [3H]-MDL as substrate pretreated for 5 mins followed by NADPH addition by RP-HPLC analysis relative to control
I would appreciate it if you labelled entries MET when Activity is 30% or higher, otherwise NOT MET.

[
  {
    "chemical.string": "CCCCCc1cn(C/C=C(/C)CC/C=C(\\C)CCC=C(C)C)nn1",
    "measured.on": "Sterol 14-alpha demethylase (Trypanosoma cruzi (strain CL Brener)) (UniProt Q7Z1V1)",
    "class.assignment": "NOT MET"
  },
  {
    "chemical.string": "COC(=O)c1cn(C/C=C(\\C)CC/C=C(\\C)CCC=C(C)C)nn1",
    "measured.on": "Sterol 14-alpha demethylase (Trypanosoma cruzi (strain CL Brener)) (UniProt Q7Z1V1)",
    "class.assignment": "MET"
  },
  {
    "chemical.string": "COC(=O)c1cn(C/C=C(/C)CC/C=C(\\C)CCC=C(C)C)nn1",
    "measured.on": "Sterol 14-alpha demethylase (Trypanosoma cruzi (strain CL Brener)) (UniProt Q7Z1V1)",
    "class.assignment": "NOT MET"
  },
  {
    "chemical.string": "CCCc1cn(C/C=C(/C)CC/C=C(\\C)CCC=C(C)C)nn1",
    "measured.on": "Sterol 14-alpha demethylase (Trypanosoma cruzi (strain CL Brener)) (UniProt Q7Z1V1)",
    "class.assignment": "NOT MET"
  },
  {
    "chemical.string": "CCCCCc1cn(C/C=C(\\C)CC/C=C(\\C)CCC=C(C)C)nn1",
    "measured.on": "Sterol 14-alpha demethylase (Trypanosoma cruzi (strain CL Brener)) (UniProt Q7Z1V1)",
    "class.assignment": "NOT MET"
  },
  {
    "chemical.string": "CCCc1cn(C/C=C(\\C)CC/C=C(\\C)CCC=C(C)C)nn1",
    "measured.on": "Sterol 14-alpha demethylase (Trypanosoma cruzi (strain CL Brener)) (UniProt Q7Z1V1)",
    "class.assignment": "NOT MET"
  }
]

* * *

- assay.name: Octanol/water partition coefficient, log P of the compound
- Assay type: physicochemical
property.label: logP

[
  {
    "chemical.string": "CCCCCc1cn(C/C=C(/C)CCC=C(C)C)nn1",
    "property.label": "logP",
    "measured.result": 5.45
  },
  {
    "chemical.string": "CC(C)=CCn1cc(-c2ccccc2)nn1",
    "property.label": "logP",
    "measured.result": 2.82
  },
  {
    "chemical.string": "CCCCCCCCc1cn(C/C=C(/C)CC/C=C(\\C)CCC=C(C)C)nn1",
    "property.label": "logP",
    "measured.result": 8.76
  },
  {
    "chemical.string": "CCCc1cn(CC=C(C)C)nn1",
    "property.label": "logP",
    "measured.result": 2.47
  }
]

* * *

- measured.on: Sterol 14-alpha demethylase (Trypanosoma cruzi (strain CL Brener), UniProt Q7Z1V1)
- assay.name: Binding affinity to Trypanosoma cruzi CYP51 by spectrophotometric method

[
  {
    "chemical.string": "CCCCCc1cn(C/C=C(/C)CC/C=C(\\C)CCC=C(C)C)nn1",
    "Kd (µM)": 7.6
  }
]
